- experiment: Metabolic stability in mouse liver microsomes
- Assay type: in vitro ADME
Mark class 1 only for Metabolic stability (mouse liver microsomes) % of compound remaining after 30 minutes values smaller than 30%; exact matches and larger values are class 0.

# chemical smiles, assigned category
records = [
    ("CCC1(CC)C(=O)Nc2ncc(/C=C/C(=O)N(C)Cc3sc4ccccc4c3C)cc21", "class 1"),
    ("CN(Cc1cc2ccccc2n1C)C(=O)/C=C/c1cnc2c(c1)C(C)(C)C(=O)N2", "class 0"),
    ("CN(Cc1cc2ccccc2n1C)C(=O)/C=C/c1cnc2[nH]nc(N(C)C)c2c1", "class 0"),
    ("CN(Cc1cn(C)c2ccccc12)C(=O)/C=C/c1ccc2c(c1)C1(CCC1)C(=O)N2", "class 0"),
    ("Cc1c(CN(C)C(=O)/C=C/c2cnc3c(c2)C(C)(C)C(=O)N3)oc2ccccc12", "class 1"),
]

Determine whether this molecule shows Metabolic stability (mouse liver microsomes) % of compound remaining after 30 minutes lower than 30% (ties excluded): CN(Cc1cc2ccccc2s1)C(=O)/C=C/c1cnc2c(c1)C(C)(C)C(=O)N2
class 1

Could you please tell me whether Metabolic stability (mouse liver microsomes) % of compound remaining after 30 minutes recorded for Cc1ccc2oc(CN(C)C(=O)/C=C/c3ccc4c(c3)C3(CCC3)C(=O)N4)c(C)c2c1 is less than 30%?
class 1

Item Cc1c(CN(C)C(=O)/C=C/c2cnc3c(c2)C2(CCC2)C(=O)N3)oc2ccccc12 : Metabolic stability (mouse liver microsomes) % of compound remaining after 30 minutes beneath 30%, strictly?
class 1

---

- experiment: Pharmacokinetic profile in male Swiss albino mice
- stated conditions: mouse, in vivo, intravenous single dose 5 mg/kg body weight
- Protocol: The following compounds were dosed to male Swiss albino mice to determine the pharmacokinetic profiles.
measurement type: clearance (mL/min/kg)
Note: unit mL/min/kg is implicit; provide only the numeric part.

Guide cases for clearance, answers given:
# compound, clearance (mL/min/kg)
measured = [
    ("CN(Cc1cc2ccccc2n1C)C(=O)/C=C/c1cnc2[nH]nc(N(C)C)c2c1 [VT-02-00039]", 91.5),
    ("Cc1c(CN(C)C(=O)/C=C/c2cnc3c(c2)C(C)(C)C(=O)N3)oc2ccccc12 [VT-02-00068]", 7.83),
    ("CCC1(CC)C(=O)Nc2ncc(/C=C/C(=O)N(C)Cc3oc4ccccc4c3C)cc21 [VT-02-00071]", 67.8),
    ("CCn1c(=O)[nH]c2ncc(/C=C/C(=O)N(C)Cc3cc4ccccc4n3C)cc21 [VT-02-00044]", 75.9),
    ("Cc1c(CN(C)C(=O)/C=C/c2cnc3c(c2)C2(CCC2)C(=O)N3)sc2ccccc12 [VT-02-00073]", 11.1),
]

Any idea what clearance was measured for CCC1(CC)C(=O)Nc2ncc(/C=C/C(=O)N(C)Cc3sc4ccccc4c3C)cc21 [VT-02-00078] ?
58.5

So what does the record say about clearance for CCC1(CC)C(=O)Nc2ncc(/C=C/C(=O)N(C)Cc3cc4ccccc4n3C)cc21 [VT-02-00064] ?
59.4

---

The reader will find reported Cmax values listed item by item below.
- experiment: Pharmacokinetic profile in male Swiss albino mice
- stated conditions: mouse, in vivo, intravenous single dose 5 mg/kg body weight
- Method: The following compounds were dosed to male Swiss albino mice to determine the pharmacokinetic profiles.
Please state the figure in ng/mL; there is no need to write the unit.

Solved entries:
# chemical smiles, Cmax [ng/mL]
records = [
    ("Cc1c(CN(C)C(=O)/C=C/c2cnc3c(c2)C2(CCC2)C(=O)N3)sc2ccccc12", 4380),
    ("CCn1c(=O)[nH]c2ncc(/C=C/C(=O)N(C)Cc3cc4ccccc4n3C)cc21", 949),
    ("Cc1c(CN(C)C(=O)/C=C/c2cnc3c(c2)C(C)(C)C(=O)N3)oc2ccccc12", 7850),
    ("CN(Cc1cc2ccccc2n1C)C(=O)/C=C/c1cnc2[nH]nc(N(C)C)c2c1", 868),
    ("CCC1(CC)C(=O)Nc2ncc(/C=C/C(=O)N(C)Cc3oc4ccccc4c3C)cc21", 1550),
]

# next molecule below
Returns the measured Cmax for the input molecule. Input: CCC1(CC)C(=O)Nc2ncc(/C=C/C(=O)N(C)Cc3cc4ccccc4n3C)cc21
1810
